target: Jak2 (UniProt O60674); test: phosphorylation enrichment, bacterial display (enrichment ratio); higher = better substrate or ligand; peptides without Tyr show the background
Sequence (O60674 whole entry, looked up): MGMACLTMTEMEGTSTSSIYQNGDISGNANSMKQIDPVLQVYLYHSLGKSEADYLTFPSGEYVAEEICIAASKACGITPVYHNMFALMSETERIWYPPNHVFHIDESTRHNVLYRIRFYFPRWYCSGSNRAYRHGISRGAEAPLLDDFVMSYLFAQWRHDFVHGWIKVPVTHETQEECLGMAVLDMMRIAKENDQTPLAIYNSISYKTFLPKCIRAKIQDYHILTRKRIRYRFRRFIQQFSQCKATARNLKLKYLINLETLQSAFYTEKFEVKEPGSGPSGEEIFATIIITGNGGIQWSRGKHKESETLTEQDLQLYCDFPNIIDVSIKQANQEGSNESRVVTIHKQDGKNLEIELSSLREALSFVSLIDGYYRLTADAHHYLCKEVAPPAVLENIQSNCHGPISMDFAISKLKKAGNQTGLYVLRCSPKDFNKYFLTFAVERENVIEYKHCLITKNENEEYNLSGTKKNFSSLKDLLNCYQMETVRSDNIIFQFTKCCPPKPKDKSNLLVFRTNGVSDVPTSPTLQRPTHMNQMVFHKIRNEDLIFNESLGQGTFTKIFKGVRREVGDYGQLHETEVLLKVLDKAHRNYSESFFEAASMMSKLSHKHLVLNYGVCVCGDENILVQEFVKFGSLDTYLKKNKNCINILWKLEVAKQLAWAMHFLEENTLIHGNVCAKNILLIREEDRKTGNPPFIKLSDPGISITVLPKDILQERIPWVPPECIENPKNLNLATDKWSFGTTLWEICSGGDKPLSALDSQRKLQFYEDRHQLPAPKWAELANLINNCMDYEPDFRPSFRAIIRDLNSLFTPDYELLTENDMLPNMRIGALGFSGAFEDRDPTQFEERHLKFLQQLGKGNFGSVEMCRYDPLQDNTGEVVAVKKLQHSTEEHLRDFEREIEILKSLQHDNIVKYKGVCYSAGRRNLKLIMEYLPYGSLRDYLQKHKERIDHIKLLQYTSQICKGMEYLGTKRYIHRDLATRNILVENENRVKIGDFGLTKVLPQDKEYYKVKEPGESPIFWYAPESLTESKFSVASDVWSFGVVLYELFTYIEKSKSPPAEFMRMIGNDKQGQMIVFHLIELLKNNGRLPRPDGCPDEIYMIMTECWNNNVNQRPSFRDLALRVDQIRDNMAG
measure: phosphorylation enrichment
Could you keep your reply to the number by itself?

Please review the following examples before continuing.
FSTDFYRVGGH [NTRK2_Y707_YF]	0.704
KHTLSYVDVGT [SDHA_Y629]	0.552
TGYRPYVCPFD [YY1_Y383_D380Y]	1.04

Query string: Print Jak2 (UniProt O60674) phosphorylation enrichment for FTTIHYNFMCN [TP53_Y234_C229Y_YF] .
Result string: 1.24

Query string: Print Jak2 (UniProt O60674) phosphorylation enrichment for SKEPFYVHCIK [MYO1D_Y586_R588H_YF] .
Result string: 0.864

Query string: Print Jak2 (UniProt O60674) phosphorylation enrichment for VKPENDRRLDI [VHL_Y175_Y175D] .
Result string: 0.692

Query string: Print Jak2 (UniProt O60674) phosphorylation enrichment for EFQLPYFNMVP [BMPR1A_Y457_YF] .
Result string: 7.21

====

# SH2 binding enrichment values compiled below
target: c-Src SH2; test: SH2 binding enrichment of the phosphorylated peptide, bacterial display (enrichment ratio); higher = better substrate or ligand; peptides without Tyr show the background;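 further: peptide library displayed on the E. coli surface as eCPX fusions, selected cells deep-sequenced, score is each peptide's frequency after selection divided by its frequency in the input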
Could you keep your reply to the number by itself?

Please review the following examples before continuing.
PVGVLYEVKVF [PTS_Y128_K129E_YF]	0.611
RWHEGYRQTPK [CD44_Y412]	0.898
KLKNAYEESLE [MYH7_Y1488]	0.654
RAFRHYLLKQK [SCN2A_Y1919_R1918H_YF]	0.468
SNKLHYQLEQE [PDPR_Y110_Y109H]	0.72

Turning now to a further record.
Query string: Print c-Src SH2 SH2 binding enrichment for MSSHHCDFKKF [ZNF445_Y428_Y428C_YF] .
Result string: 0.449

====

molecular target: EPHB1 (UniProt P54762); experiment: phosphorylation enrichment, bacterial display (enrichment ratio); higher = better substrate or ligand; peptides without Tyr show the background
Sequence (P54762 whole entry, looked up): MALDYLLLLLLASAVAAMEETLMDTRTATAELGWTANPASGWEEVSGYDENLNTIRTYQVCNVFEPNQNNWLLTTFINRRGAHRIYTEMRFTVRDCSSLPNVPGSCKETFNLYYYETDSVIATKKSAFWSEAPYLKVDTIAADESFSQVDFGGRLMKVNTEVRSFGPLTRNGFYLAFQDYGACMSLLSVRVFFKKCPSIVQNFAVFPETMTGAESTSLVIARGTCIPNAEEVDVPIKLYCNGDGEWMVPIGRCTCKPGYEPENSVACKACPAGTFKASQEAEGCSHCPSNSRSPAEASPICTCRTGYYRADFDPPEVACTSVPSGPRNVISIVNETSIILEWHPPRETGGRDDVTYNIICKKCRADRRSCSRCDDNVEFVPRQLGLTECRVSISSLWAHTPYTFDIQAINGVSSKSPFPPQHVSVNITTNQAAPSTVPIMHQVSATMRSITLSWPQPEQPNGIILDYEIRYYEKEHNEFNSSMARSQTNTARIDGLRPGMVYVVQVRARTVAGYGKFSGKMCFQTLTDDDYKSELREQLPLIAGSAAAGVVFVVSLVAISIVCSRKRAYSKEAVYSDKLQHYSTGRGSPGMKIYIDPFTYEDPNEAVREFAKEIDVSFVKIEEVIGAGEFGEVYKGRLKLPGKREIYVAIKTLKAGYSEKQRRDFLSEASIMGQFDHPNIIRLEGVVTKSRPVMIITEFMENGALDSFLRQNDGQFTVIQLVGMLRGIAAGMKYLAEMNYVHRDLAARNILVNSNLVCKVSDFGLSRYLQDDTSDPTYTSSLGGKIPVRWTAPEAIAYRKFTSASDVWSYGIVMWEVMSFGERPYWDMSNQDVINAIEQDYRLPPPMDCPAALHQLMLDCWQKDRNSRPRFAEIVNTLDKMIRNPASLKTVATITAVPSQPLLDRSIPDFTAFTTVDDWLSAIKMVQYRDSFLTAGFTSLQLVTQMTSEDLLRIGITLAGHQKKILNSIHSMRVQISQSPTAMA
# phosphorylation enrichment values compiled below
Could you keep your reply to the number by itself?

Please review the following examples before continuing.
DKGTLYIAEQI [PLBD1_Y375_V377A]	0.565
PFSNPYENSLI [EPOR_Y489_YF]	0.92
LVIIKYLPEWT [PSEN1_Y240_F237I]	2.33
LLIVEYAKYGS [RET_Y806]	1.12
KTDVHYRSLGG [DYSF_Y1858]	0.329

Query string: Answer with reported phosphorylation enrichment of PFRQWYESHFA [RPS8_Y113_YF]
Result string: 0.827

====

# phosphorylation enrichment values compiled below
molecular target: Hck (UniProt P08631); assay: phosphorylation enrichment, bacterial display (enrichment ratio); higher = better substrate or ligand; peptides without Tyr show the background
Sequence (P08631 whole entry, looked up): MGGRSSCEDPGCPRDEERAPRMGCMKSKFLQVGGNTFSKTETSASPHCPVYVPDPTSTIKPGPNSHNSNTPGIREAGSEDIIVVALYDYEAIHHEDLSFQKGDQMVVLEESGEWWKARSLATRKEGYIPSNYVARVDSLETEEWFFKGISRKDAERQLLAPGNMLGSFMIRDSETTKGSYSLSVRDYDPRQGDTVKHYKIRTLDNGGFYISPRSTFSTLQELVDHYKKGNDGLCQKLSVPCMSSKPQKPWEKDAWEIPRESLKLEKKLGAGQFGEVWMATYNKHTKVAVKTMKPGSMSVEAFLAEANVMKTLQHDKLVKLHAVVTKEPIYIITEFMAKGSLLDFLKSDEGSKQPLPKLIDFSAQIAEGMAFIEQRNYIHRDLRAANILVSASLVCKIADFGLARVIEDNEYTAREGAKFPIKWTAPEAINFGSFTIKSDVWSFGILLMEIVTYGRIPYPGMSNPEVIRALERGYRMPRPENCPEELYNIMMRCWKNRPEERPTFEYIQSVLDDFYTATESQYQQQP
Could you keep your reply to the number by itself?

DKTGEYPVPLT [ACADM_Y73_I78T]	0.382
SVVVPYEPAEV [TP53_Y220_P223A]	0.498
IPPRRYFCSGV [STAMBP_Y36_R38C]	0.464
QKTGDYYDLYG [PTPN11_Y62_N58K]	4.6
HKLSYCEYDFE [BTK_Y40_Y40C]	0.746
LTECGYSFTTT [ACTB_Y198_R196C]	0.555

Turning now to a further record.
Query string: Print Hck (UniProt P08631) phosphorylation enrichment for TESNNYIYTTL [FAM83B_Y637_K640T] .
Result string: 7.3

====

# phosphorylation enrichment values compiled below
test system: Fer (mouse); test: phosphorylation enrichment, bacterial display (enrichment ratio); higher = better substrate or ligand; peptides without Tyr show the background
Could you keep your reply to the number by itself?

Query string: Answer with reported phosphorylation enrichment of KGLMPYGQPRP [SRRT_Y798_Q793K]
Result string: 0.363

Query string: Answer with reported phosphorylation enrichment of PSAEGYQDVRD [ABLIM1_Y439]
Result string: 0.634

Query string: Answer with reported phosphorylation enrichment of LEDPMYDIIRD [RP9_Y142_H137L]
Result string: 6.19

Query string: Answer with reported phosphorylation enrichment of REVPVYIGEDS [SYNM_Y460]
Result string: 0.499

Query string: Answer with reported phosphorylation enrichment of WCSNDHLGMSR [ALAS2_Y199_Y199H]
Result string: 0.438

Query string: Answer with reported phosphorylation enrichment of LGSWTYTKTVS [ROS1_Y144]
Result string: 0.8

Query string: Answer with reported phosphorylation enrichment of SVTCTYCPALN [TP53_Y126_S127C]
Result string: 0.394

====

target: FGFR3 (UniProt P22607); test: phosphorylation enrichment, bacterial display (enrichment ratio); higher = better substrate or ligand; peptides without Tyr show the background
Sequence (P22607 whole entry, looked up): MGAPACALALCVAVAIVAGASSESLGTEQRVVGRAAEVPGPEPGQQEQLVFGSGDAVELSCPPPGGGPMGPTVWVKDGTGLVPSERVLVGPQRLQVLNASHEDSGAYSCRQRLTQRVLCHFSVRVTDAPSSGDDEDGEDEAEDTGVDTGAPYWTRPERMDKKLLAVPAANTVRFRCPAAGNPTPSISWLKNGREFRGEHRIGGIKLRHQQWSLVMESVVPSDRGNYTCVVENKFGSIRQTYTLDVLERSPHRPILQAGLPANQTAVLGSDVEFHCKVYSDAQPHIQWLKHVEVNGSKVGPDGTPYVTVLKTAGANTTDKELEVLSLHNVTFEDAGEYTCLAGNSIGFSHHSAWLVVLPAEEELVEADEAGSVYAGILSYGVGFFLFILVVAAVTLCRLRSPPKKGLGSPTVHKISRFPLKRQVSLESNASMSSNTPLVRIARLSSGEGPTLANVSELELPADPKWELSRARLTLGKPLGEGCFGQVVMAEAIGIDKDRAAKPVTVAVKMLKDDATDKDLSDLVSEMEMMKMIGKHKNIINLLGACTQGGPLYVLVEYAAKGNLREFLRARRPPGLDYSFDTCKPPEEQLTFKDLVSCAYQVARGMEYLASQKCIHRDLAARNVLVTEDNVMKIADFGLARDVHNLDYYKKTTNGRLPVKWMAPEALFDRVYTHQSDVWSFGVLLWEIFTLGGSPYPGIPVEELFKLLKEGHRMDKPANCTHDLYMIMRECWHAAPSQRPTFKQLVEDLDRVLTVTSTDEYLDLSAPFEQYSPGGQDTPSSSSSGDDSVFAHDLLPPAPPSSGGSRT
# phosphorylation enrichment values compiled below
Could you keep your reply to the number by itself?

Please review the following examples before continuing.
KLSFSYGRALQ [ALDOB_Y302]	0.642
PFSNPYENSLI [EPOR_Y489_YF]	1.02
VQQVIYATRAL [MYH7_Y422_G425R]	0.534
DKTGEYPVPLT [ACADM_Y73_I78T]	0.578
LEDPMYDIIRD [RP9_Y142_H137L]	1.29

Query string: Print FGFR3 (UniProt P22607) phosphorylation enrichment for NDDDVYRSLEE [VAV2_Y142] .
Result string: 0.793

Query string: Print FGFR3 (UniProt P22607) phosphorylation enrichment for IPPRRYFCSGV [STAMBP_Y36_R38C] .
Result string: 0.447

Query string: Print FGFR3 (UniProt P22607) phosphorylation enrichment for SSQILYKLEQS [THADA_Y701_V699I] .
Result string: 0.582

Query string: Print FGFR3 (UniProt P22607) phosphorylation enrichment for APSEFYDGDHD [HDAC3_Y414_N411S] .
Result string: 0.923

Query string: Print FGFR3 (UniProt P22607) phosphorylation enrichment for VGQRPYRPLPE [REEP3_Y170_Q171R] .
Result string: 0.519

Query string: Print FGFR3 (UniProt P22607) phosphorylation enrichment for RSPLRYISILT [OR51B6_Y130_T131I] .
Result string: 0.763

Query string: Print FGFR3 (UniProt P22607) phosphorylation enrichment for EIASHYRHLLR [ZBTB46_Y14_T11A] .
Result string: 0.528

Query string: Print FGFR3 (UniProt P22607) phosphorylation enrichment for IKAGAYDFPSL [CAMK2A_Y230_P235L] .
Result string: 0.484

Query string: Print FGFR3 (UniProt P22607) phosphorylation enrichment for HNQDGYSYLSR [LDLR_Y845_P848L] .
Result string: 0.658

Query string: Print FGFR3 (UniProt P22607) phosphorylation enrichment for FLQTDYTSQVS [FRMPD1_Y846] .
Result string: 0.538

Query string: Print FGFR3 (UniProt P22607) phosphorylation enrichment for LQLLGYRPVFS [CHST6_Y358_YF] .
Result string: 0.707

Query string: Print FGFR3 (UniProt P22607) phosphorylation enrichment for AHPIIYTIIEA [PYKtide_no-pT_2014] .
Result string: 1.44

Query string: Print FGFR3 (UniProt P22607) phosphorylation enrichment for LKSEMYQKLLK [RGS13_Y146] .
Result string: 0.845

Query string: Print FGFR3 (UniProt P22607) phosphorylation enrichment for MPQNEYIELHR [NSA2_Y6] .
Result string: 1.03

====

molecular target: Hck (UniProt P08631); assay: phosphorylation enrichment, bacterial display (enrichment ratio); higher = better substrate or ligand; peptides without Tyr show the background
measure: phosphorylation enrichment
Could you keep your reply to the number by itself?

VDDEIYFFRKP [PBRM1_Y1289_YF]	5.24
QDGYSYLSRQM [LDLR_Y847_P848L]	0.646
KAESWYQTKYE [KRT75_Y342_E337K]	0.459

Turning now to a further record.
Query string: Answer with reported phosphorylation enrichment of EFFENYIEELK [PARP4_Y218_F215Y_YF]
Result string: 0.533

====

target: FGFR3 (UniProt P22607); assay: phosphorylation enrichment, bacterial display (enrichment ratio); higher = better substrate or ligand; peptides without Tyr show the background
Where phosphorylation enrichment equals or exceeds 0.9, the correct label is true (1); where it does not, the label is false (0).

Query string: # bool: phosphorylation enrichment of LAETSYVIVLE [MAGEA1_Y276_K278I] >= 0.9
Result string: true (1)

Query string: # bool: phosphorylation enrichment of LGPSDYFGEIV [PRKAR1A_Y323_A328V] >= 0.9
Result string: true (1)

Query string: # bool: phosphorylation enrichment of DPHECYAKVFD [ALB_Y394] >= 0.9
Result string: false (0)

====

tested on: Fer (mouse); experiment: phosphorylation enrichment, bacterial display (enrichment ratio); higher = better substrate or ligand; peptides without Tyr show the background
Where phosphorylation enrichment equals or exceeds 0.5, the correct label is 1; where it does not, the label is -1.

Use these answered entries as a reference point.
NDEDIYKGLPD [VAV3_Y141]	1
FKNGDYNEVMK [LCT_Y1638]	-1
VDFQPYRKHKF [TEX37_Y28_YF]	-1
RAILDYIASKF [GSTA3_Y74_N73D_YF]	1
VDSNPYSHLMA [UBA5_Y53_R55H]	1
FTAVGYHKHFT [NOMO1_Y1137_I1141F]	-1
WDLPEYSYKDP [ITGA3_Y237_S235P]	1
RGNMYYENSYA [EGFR_Y113]	1
SVAVPYEPPEV [TP53_Y220_V217A]	1
LFCLHYFHRTF [SRD5A2_Y91_V89L]	1

Query string: # bool: phosphorylation enrichment of EFGFRYELVQY [UGGT2_Y1289_Y1285F] >= 0.5
Result string: 1

Query string: # bool: phosphorylation enrichment of PADSGYPAFLG [ATP6V1A_Y374_YF] >= 0.5
Result string: 1

Query string: # bool: phosphorylation enrichment of QPAGNYSLSSV [ARFGAP3_Y473] >= 0.5
Result string: 1

Origin of values: the supplement of paper PMC10065799
